Molecular target: CB1R (Mus musculus, UniProt P47746)
Construct: crude membranes from mouse brain for CB1R; from tissue; host or cells: mouse brain, crude membranes
Sequence (P47746 whole entry): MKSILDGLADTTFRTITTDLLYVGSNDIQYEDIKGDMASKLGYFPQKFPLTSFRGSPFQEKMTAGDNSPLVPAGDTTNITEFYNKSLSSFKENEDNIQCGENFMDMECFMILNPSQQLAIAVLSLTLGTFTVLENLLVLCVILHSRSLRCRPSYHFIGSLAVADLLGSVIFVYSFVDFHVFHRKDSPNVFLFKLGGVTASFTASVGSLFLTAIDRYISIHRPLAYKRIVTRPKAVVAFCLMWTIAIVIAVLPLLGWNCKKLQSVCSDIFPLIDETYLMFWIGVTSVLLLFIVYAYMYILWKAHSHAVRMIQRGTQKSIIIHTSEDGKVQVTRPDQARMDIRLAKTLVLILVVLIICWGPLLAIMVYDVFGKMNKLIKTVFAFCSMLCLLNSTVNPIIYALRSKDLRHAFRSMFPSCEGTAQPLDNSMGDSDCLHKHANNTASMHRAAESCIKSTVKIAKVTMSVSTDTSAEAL
Experiment: Radioligand binding assay, competition displacement of [3H]CP-55,940, CB1R
Details: separated isomer S; read-out: Ki (μM) S
OUTCOME_MEASURE: Ki (µM)
Field format: number, assumed µM, no unit text.

The value of Ki measured for the molecule CC1=C(C(=O)Nc2ccccc2C(F)(F)F)C(c2cccc(Oc3ccccc3)c2)NC(=S)N1 (single isomer, unassigned) [Compound 2-S] turned out to be 6.33

* * *

Target: CB1R (Mus musculus, UniProt P47746)
Construct: crude membranes from mouse brain for CB1R; from tissue; host or cells: mouse brain, crude membranes
Assay: Radioligand binding assay, competition displacement of [3H]CP-55,940, CB1R
Conditions: CB1R competitive binding, values in text; read-out: CB1R Ki
OUTCOME_MEASURE: Ki

{"columns": ["COMPOUND", "STUDY_TARGET", "Ki"],
 "data": [
  ["N#Cc1ccc(CC(C#N)(Cc2ccc(C#N)cc2)c2nc(-c3ccc(Cl)c(Cl)c3)cs2)cc1", "CB1R (Mus musculus, UniProt P47746)", "~400 nM"]
]}

The record that follows has no Ki shown yet.
The compound CC1=C(C(=O)Nc2ccccc2C(F)(F)F)C(c2ccc(OCc3ccccc3)cc2)NC(=S)N1 (centres unmarked) , tested on CB1R (Mus musculus, UniProt P47746), showed Ki of ~400 nM

* * *

Below, each entry is listed with its recorded Ki.
Molecular target: CB1R (Mus musculus, UniProt P47746)
Construct: crude membranes from mouse brain for CB1R; from tissue; host or cells: mouse brain, crude membranes
Experiment: Radioligand binding assay, competition displacement of [3H]CP-55,940, CB1R
Settings: separated isomer R; read-out: Ki (μM) R
Method: Radioligand binding assays: Binding to CB1R and CB2R was assessed in competition displacement assays using [3^H]CP-55,940 as the radioligand and crude membranes from mouse brain for CB1R or human cell membrane for CB2R, as reported previously. All data were in triplicates with Ki values determined from three independent experiments. CB1R binding: The actual affinity of the 14 candidates was tested in a CB1R competitive binding assay.
Field format: number, assumed µM, no unit text.

{"columns": ["MOLECULE", "UNIT_OF_MEASUREMENT", "Ki"],
 "data": [
  ["CC(=O)c1cccc(S(=O)(=O)NCCC(=O)NCC(c2ccccc2Cl)c2c[nH]c3ccccc23)c1 (single isomer, unassigned)", "µM", 1.3]
]}

The record that follows has no Ki shown yet.
The value of Ki measured for the molecule CC1=C(C(=O)Nc2ccccc2C(F)(F)F)C(c2cccc(Oc3ccccc3)c2)NC(=S)N1 (single isomer, unassigned) turned out to be 4

* * *

Target: CB1R (Mus musculus)
Construct: crude membranes from mouse brain for CB1R; from tissue; host or cells: mouse brain, crude membranes
Assay: Radioligand binding assay, competition displacement of [3H]CP-55,940, CB1R
Settings: CB1R competitive binding, mouse brain membranes, [3H]CP-55,940; read-out: Ki
// assign criterion met if Ki falls strictly below 1000 nM, else criterion not met (ties count as criterion not met)

{"columns": ["MOLECULE", "CAT"],
 "data": [
  ["Cc1ccc(C(=O)C2SC(Nc3ccc(Cl)cc3)=C(C(=O)Nc3ccc(Cl)cc3)C2=N)cc1 (stereo not shown)", "criterion not met"],
  ["CC(C)C(NC(=O)c1ccco1)C(=O)NCC(c1ccccc1Cl)c1c[nH]c2ccccc12 (stereo not shown)", "criterion not met"],
  ["CC(=O)c1cccc(S(=O)(=O)NCCC(=O)NCC(c2ccccc2Cl)c2c[nH]c3ccccc23)c1 (stereo not shown)", "criterion not met"],
  ["N#Cc1ccc(CC(C#N)(Cc2ccc(C#N)cc2)c2nc(-c3ccc(Cl)c(Cl)c3)cs2)cc1", "criterion met"],
  ["CC(=O)Nc1ccc(C)c(S(=O)(=O)NCC(c2ccccc2Cl)c2c[nH]c3ccccc23)c1 (stereo not shown)", "criterion not met"]
]}

Is 1000 nM strictly greater than the molecule's reported Ki? molecule: CC(=O)NC(CC(=O)NCC(c1ccccc1Cl)c1c[nH]c2ccccc12)c1ccc(C)cc1 (stereo not shown) criterion met

Is 1000 nM strictly greater than the molecule's reported Ki? molecule: CC1=C(C(=O)Nc2ccccc2C(F)(F)F)C(c2ccc(OCc3ccccc3)cc2)NC(=S)N1 (stereo not shown) criterion met

Is 1000 nM strictly greater than the molecule's reported Ki? molecule: Cc1ccc(NC(=S)Nc2ccc(C(C)C)cc2)c(S(=O)(=O)Nc2ccc(Cl)cc2)c1 criterion not met

Is 1000 nM strictly greater than the molecule's reported Ki? molecule: CC(NC(=O)Nc1ccccc1)C(=O)NCC(c1ccccc1Cl)c1c[nH]c2ccccc12 (stereo not shown) criterion not met

Is 1000 nM strictly greater than the molecule's reported Ki? molecule: CC1=C(C(=O)Nc2ccccc2C(F)(F)F)C(c2cccc(Oc3ccccc3)c2)NC(=S)N1 (stereo not shown) criterion not met
